Values compiled from patent US9309242B2.

measure name: melting point

# count of solved cases: 3
COc1cc(OC)c(F)c(N(CC(=O)O)c2ccc3ncc(-c4cnn(C)c4)nc3n2)c1 | > 260 °C
COc1cc(/N=c2\ccc3ncc(-c4cnn(C)c4)nc3n2CC(O)COC(C)C)c(F)c(OC)c1 (single isomer, unassigned) | 96 to 97 °C
COCC(O)CN(c1ccc2ncc(-c3cnn(C)c3)nc2n1)c1cc(OC)cc(OC)c1F (single isomer, unassigned) | 94 to 95 °C

Here is the next item to consider.
**Q:** Query: melting point; subject: COc1cc(OC)c(F)c(N(c2ccc3ncc(-c4cnn(C)c4)nc3n2)C(CO)COC(C)C)c1 (single isomer, unassigned)
**A:** 137 to 138 °C

###

Overview of reported BAF3-FGFR4 pIC50 across a group of compounds:
- assayed system: Ba/F3-FGFR4-transfected cells (Homo sapiens, UniProt P22455)
- Sequence (P22455 whole entry, change not shown): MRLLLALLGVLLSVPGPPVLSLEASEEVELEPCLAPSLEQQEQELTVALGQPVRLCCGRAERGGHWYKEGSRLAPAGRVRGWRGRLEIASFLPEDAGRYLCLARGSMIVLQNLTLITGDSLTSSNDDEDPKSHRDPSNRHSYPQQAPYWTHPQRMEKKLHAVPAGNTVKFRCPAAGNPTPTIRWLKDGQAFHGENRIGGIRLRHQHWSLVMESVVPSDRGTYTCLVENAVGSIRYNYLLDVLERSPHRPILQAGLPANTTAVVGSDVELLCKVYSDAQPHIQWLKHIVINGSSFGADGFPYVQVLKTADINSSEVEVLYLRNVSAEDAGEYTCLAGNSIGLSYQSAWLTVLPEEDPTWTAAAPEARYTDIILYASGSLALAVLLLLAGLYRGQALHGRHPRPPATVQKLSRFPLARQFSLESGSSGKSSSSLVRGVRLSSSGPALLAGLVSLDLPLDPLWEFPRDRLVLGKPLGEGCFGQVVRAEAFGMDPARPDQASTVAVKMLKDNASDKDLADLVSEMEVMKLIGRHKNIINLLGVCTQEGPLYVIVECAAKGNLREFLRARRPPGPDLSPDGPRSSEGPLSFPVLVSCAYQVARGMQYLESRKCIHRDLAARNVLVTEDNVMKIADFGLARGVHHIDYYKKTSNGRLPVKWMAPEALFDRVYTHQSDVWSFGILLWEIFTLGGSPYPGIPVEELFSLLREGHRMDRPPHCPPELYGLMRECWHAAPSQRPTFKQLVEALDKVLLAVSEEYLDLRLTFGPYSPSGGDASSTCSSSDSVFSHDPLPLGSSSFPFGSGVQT
- test details: Ba/F3-FGFR4 cellular proliferation assay, Alamar Blue
- Type: cell-based
- Experimental: Ba/F3-FGFR4 (Cellular Proliferation Assay) In a 384 well plate, 100 n1 of compound dilution in DMSO was sprayed before adding 50 μl cell culture medium (phenol red free RPMI-1640, 10% FBS, 2 mM L-Glutamine and 50 μg/ml Gentamycin) containing 20000 cells per well of Ba/F3-FGFR4-transfected cells. Cells were put in an incubator at 37° C. and 5% CO2. […]
Where a name gives a salt, the structure may show the parent alone.

# count of solved cases: 5
COc1cc(OC)c(F)c(N(CCO)c2ccc3ncc(-c4cnn(C)c4)nc3n2)c1 | 7.04
COc1cc(OC)cc(N(c2ccc3ncc(-c4cnn(C)c4)nc3n2)C(C)c2ncc[nH]2)c1 (centres unmarked) | 7.97
COc1cc(OC)cc(N(Cc2ncc[nH]2)c2ccc3ncc(-c4cnn(C)c4)nc3n2)c1 [24-sulphate salt] | 7.57
COc1cc(OC)c(F)c(N(c2ccc3ncc(-c4cnn(C)c4)nc3n2)C(CO)COC(C)C)c1 (single isomer, unassigned) | 5.20
COc1cc(OC)cc(N(CC2CCCOC2)c2ccc3ncc(-c4cnn(C)c4)nc3n2)c1 (centres unmarked) | 6.24

**Q:** Query: BAF3-FGFR4 pIC50; subject: COc1cc(OC)c(F)c(N(CC2CCC(=O)N2)c2ccc3ncc(-c4cnn(C)c4)nc3n2)c1F (centres unmarked) [Compound 48]
**A:** 6.89

**Q:** // next record "CNC(=O)c1cc(F)cc(N(Cc2ncc[nH]2)c2ccc3ncc(-c4cnn(C)c4)nc3n2)c1"
**A:** 6.77

**Q:** // next record COc1cc(/N=c2\ccc3ncc(-c4cnn(C)c4)nc3n2CC2CCC(=O)N2C)c(F)c(OC)c1 (centres unmarked) [Compound 160]
**A:** 6.99

**Q:** // next record "COc1cc(OC)c(F)c(N(Cc2nnc(NCCO)o2)c2ccc3ncc(-c4cnn(C)c4)nc3n2)c1"
**A:** <5

**Q:** // next record "COc1cc(OC)c(F)c(N(CC(C)(C)O)c2ccc3ncc(-c4cnn(C)c4)nc3n2)c1F"
**A:** 7.11

###

- assayed system: KDR (h) (Homo sapiens)
- Sequence (P35968 20-1356): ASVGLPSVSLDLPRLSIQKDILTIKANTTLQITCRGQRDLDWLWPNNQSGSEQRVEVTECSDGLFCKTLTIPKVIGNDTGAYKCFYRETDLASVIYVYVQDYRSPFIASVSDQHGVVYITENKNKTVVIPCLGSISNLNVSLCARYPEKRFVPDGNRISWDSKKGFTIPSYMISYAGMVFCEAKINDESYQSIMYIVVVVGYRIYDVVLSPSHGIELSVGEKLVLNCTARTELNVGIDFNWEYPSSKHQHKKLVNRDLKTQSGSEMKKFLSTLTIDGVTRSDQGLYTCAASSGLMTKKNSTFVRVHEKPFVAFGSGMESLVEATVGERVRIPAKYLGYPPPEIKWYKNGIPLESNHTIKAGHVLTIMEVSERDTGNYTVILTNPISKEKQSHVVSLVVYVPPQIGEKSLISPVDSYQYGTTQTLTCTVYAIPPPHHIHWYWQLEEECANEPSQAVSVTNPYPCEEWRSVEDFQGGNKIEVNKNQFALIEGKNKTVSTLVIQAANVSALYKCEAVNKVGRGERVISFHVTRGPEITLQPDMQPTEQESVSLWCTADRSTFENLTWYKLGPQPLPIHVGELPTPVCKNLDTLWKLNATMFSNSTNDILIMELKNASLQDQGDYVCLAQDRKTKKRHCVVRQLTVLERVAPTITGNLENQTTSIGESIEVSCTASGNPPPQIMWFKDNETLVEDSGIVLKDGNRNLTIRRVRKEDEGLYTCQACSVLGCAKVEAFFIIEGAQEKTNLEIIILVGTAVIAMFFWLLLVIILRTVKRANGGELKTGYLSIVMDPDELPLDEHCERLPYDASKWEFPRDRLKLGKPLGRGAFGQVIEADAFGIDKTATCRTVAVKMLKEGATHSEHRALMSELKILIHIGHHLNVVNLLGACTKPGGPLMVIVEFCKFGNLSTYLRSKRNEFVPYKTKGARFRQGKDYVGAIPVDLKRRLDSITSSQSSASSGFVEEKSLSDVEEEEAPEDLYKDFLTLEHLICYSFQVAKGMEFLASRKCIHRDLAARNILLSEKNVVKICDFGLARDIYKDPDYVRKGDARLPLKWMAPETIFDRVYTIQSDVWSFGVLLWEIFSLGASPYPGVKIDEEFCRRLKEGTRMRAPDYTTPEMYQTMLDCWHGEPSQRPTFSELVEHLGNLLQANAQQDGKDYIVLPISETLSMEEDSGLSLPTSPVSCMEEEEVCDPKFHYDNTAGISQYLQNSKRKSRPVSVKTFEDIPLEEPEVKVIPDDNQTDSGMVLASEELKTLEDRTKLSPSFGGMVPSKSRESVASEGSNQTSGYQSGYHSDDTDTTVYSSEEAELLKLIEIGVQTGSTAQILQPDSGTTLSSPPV
- test details: KDR (VEGFR2) (enzymatic assay), TR-FRET
- Type: biochemical
- protocol conditions: average values if tested multiple times, read-out: VEGFR 2 (KDR) pIC50 (converted)
- Experimental: KDR (VEGFR2) (Enzymatic Assay) In a final reaction volume of 30 μL, KDR (h) (150 ng/ml) was incubated with 50 mM HEPES pH 7.5, 6 mM MnCl2, 1 mM DTT, 0.1 mM Na3VO4, 0.01% Triton-X-100, 500 nM Btn-Flt3 and 3 μM ATP in the presence of compound (1% DMSO final). […] Time-Resolved Fluorescence Resonance Energy Transfer (TR-FRET) signal (ex340 nm. Em 620 nm, em 655 nm) was measured afterwards and results are expressed in RFU (Relative Fluorescence Units).
Where a name gives a salt, the structure may show the parent alone.
Overview of reported IC50 across a group of compounds:
Include the unit right after the number.

# count of solved cases: 2
COc1cc(OC)cc(N(Cc2ncc[nH]2)c2ccc3ncc(-c4cnn(C)c4)nc3n2)c1 (racemic) [24-DL-tartrate salt] | 11.7 nM
COc1cc(OC)c(F)c(N(CCO)c2ccc3ncc(-c4cnn(C)c4)nc3n2)c1 | 17.4 nM

Here is the next item to consider.
**Q:** Query: IC50; subject: COc1cc(OC)c(F)c(N(CC(O)COC(C)C)c2ccc3ncc(-c4cnn(C)c4)nc3n2)c1 (single isomer, unassigned) [Compound 79]
**A:** 25.7 nM
